Where do the numbers come from? From patent US20110076723A1.

Reported values of IC50 for individual entries
TARGET OR SYSTEM: T1, recombinant hAng-2 (recombinant protein with His tag attached to human Ang-2; R&D Systems) (human, UniProt O15123 19-496)
T1 construct: also called angiopoietin-2; ANGPT2
T1 sequence (looked up): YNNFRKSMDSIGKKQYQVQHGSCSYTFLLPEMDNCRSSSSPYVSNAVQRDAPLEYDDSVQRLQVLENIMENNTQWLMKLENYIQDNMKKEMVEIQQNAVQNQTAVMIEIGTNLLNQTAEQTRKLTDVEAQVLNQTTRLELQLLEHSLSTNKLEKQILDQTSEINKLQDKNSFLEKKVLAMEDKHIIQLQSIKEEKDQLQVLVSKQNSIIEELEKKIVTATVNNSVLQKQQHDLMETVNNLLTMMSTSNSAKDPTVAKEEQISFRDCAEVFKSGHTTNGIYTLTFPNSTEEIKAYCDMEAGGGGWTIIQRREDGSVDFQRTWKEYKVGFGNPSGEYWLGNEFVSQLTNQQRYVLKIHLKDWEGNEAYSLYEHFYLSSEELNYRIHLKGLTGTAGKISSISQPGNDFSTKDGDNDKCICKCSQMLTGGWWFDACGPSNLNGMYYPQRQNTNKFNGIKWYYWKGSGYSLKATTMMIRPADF
METHOD: competitive ELISA; synergibody titrated with 1 nM hAng-2 (His) on coated hTie2-Fc
Please state the figure in nM; there is no need to write the unit.

Syn-Ang-VEGFR-7 (other, Chimeric (human IgG1) SAITAng-2-2 with the peptide at the C-terminus of the heavy chain; also called SAITAng-2-2 x DTN8VEGFR-2-2; not shown: human IgG1 heavy chain constant region with Fc region, from the vector; human light chain constant region, printed as 'constant region of human IgG1') heavy (part 1 of 2): QVQLQQSGPELVKPGASVKMSCKASGYTFTDYVISWVKQRTGQGLEWIGEIYPGSGSTYYNEKFKGKASLTADKSSNTAYMQLSSLTSADSAVYFCVRSRGDYYAMDYWGQGTSVTVSS heavy (part 2 of 2): EAGKETCGYEWQYCPRP light: DIQMTQSPSSLSASLGGKVTITCKASQDINNYITWYQHKPGKGPRLLIHYTSTLQPGIPSRFSGSGSGRDYSFSISNLEPEDIATYYCLQYDNLLTFGGGTKLEIK :: 2.01

// switching to the query binder
So what's the measured IC50 for this one? Syn-Ang-VEGFR-8 (other, Chimeric (human IgG1) SAITAng-2-2 with the peptide at the C-terminus of the heavy chain; also called SAITAng-2-2 x DTN9VEGFR-2-3; not shown: human IgG1 heavy chain constant region with Fc region, from the vector; human light chain constant region, printed as 'constant region of human IgG1') heavy (part 1 of 2): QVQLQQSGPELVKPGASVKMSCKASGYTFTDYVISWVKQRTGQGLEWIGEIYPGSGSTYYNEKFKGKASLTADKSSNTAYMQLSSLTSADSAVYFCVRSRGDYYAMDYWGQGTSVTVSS heavy (part 2 of 2): EAGAYWCKAWGLSPCLVT light: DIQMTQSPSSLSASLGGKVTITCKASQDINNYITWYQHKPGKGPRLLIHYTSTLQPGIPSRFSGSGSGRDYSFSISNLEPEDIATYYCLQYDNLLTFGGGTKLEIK 2.22
